Where do the numbers come from? From ChEMBL document CHEMBL4334542.

Could you please report measured log10 IC50 for the items listed next?
- Tested on: Plasmodium falciparum
- protocol notes: Antimalarial activity against Plasmodium falciparum NF54 early gametocytes transfected with luciferase gene incubated for 48 hrs by luciferase reporter gene assay
- Assay type: functional, organism-based
- experimental setup: NF54, 48 h
Could you please treat all values as log10 of IC50 in µM?

Some compounds with known log10 IC50 results, for comparison:
[[record]]
compound = "Cc1n(CC(C)C)c2c([n+]1CC(C)C)C(=O)c1ccccc1C2=O"
reported_property = "log10 IC50"
quantitative_result = -0.47

[[record]]
compound = "CCCCCC[n+]1c2c(n(CC(C)C)c1C)C(=O)c1ccccc1C2=O"
reported_property = "log10 IC50"
quantitative_result = -0.84

[[record]]
compound = "Cc1n(C(C)C)c2c([n+]1C(C)C)C(=O)c1ccccc1C2=O.[Br-]"
reported_property = "log10 IC50"
quantitative_result = -1.14

[[record]]
compound = "CCCn1c2c([n+](CC)c1C)C(=O)c1ccccc1C2=O"
reported_property = "log10 IC50"
quantitative_result = -0.41

[[record]]
compound = "CCCCCCCCCC[n+]1c2c(n(CC(C)C)c1C)C(=O)c1ccccc1C2=O"
reported_property = "log10 IC50"
quantitative_result = -0.43

[[record]]
compound = "CN(C)c1ccc2nc3ccc(N(C)C)cc3[s+]c2c1 [METHYLENE BLUE ANHYDROUS]"
reported_property = "log10 IC50"
quantitative_result = -1.02


I would be grateful if you could provide log10 IC50 for each of the following entries.
1. Cc1n(CC(C)C)c2c([n+]1C1CC1)C(=O)c1ccccc1C2=O
2. CCCC[n+]1c2c(n(CC(C)C)c1C)C(=O)c1ccccc1C2=O
3. CC[n+]1c2c(n(CC(C)C)c1C)C(=O)c1ccccc1C2=O
4. CCC[n+]1c2c(n(CC(C)C)c1C)C(=O)c1ccccc1C2=O
5. CCCCn1c2c([n+](CC)c1C)C(=O)c1ccccc1C2=O

1: -0.86; 2: -0.74; 3: -1.48; 4: -0.57; 5: -0.57

Lab note: record log10 IC50 of C[C@H]1[C@H](OC(=O)CCC(=O)O)O[C@@H]2O[C@@]3(C)CC[C@H]4[C@H](C)CC[C@@H]1[C@@]24OO3 [ARTESUNATE] tested on Plasmodium falciparum.
-1.20
